# system-tested: UniProt:P03372
# Sequence (P03372 whole entry): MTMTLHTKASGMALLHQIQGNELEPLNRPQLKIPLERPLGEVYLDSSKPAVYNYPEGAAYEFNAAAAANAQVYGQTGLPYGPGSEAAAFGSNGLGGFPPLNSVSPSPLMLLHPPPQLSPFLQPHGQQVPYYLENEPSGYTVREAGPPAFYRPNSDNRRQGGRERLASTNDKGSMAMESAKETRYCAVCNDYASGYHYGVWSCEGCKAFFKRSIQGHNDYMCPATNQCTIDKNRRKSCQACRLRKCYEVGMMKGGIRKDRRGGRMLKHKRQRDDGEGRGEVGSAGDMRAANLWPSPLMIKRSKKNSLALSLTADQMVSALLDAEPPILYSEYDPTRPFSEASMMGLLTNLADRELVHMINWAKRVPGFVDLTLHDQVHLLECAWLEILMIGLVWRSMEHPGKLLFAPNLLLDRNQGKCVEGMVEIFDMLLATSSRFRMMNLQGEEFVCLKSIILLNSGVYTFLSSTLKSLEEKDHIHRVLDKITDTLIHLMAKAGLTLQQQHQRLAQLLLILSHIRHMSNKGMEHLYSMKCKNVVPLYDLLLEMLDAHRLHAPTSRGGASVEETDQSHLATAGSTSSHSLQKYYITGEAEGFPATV
Could you please report measured pEC50 for the items listed next?
A value of pEC50 is the negative decimal logarithm of a concentration given in moles per litre.

query: Item "CCCC(CCC)(c1ccc(O)c(C)c1)c1ccc(/C=C/C(=O)OCC)c(C)c1" has what recorded pEC50?
result: 6.71

query: And "CCCC(CCC)(c1ccc(O)c(C)c1)c1ccc(OCCC(C)C)c(C)c1" ?
result: 6.37

query: Record: "CCCC(CCC)(c1ccc(O)c(C)c1)c1ccc(O)c(C)c1"
result: 8.00

query: Request: "CCCC(CCC)(c1ccc(O)c(C)c1)c1ccc(/C=C/C(=O)O)c(C)c1"
result: 6.36

query: Moving on to "CCc1cc(C(CC)(CC)c2ccc(O)c(CC)c2)ccc1O"
result: 6.14

###

# system-tested: Estrogen receptor (Homo sapiens, UniProt P03372)
# assay-explanation: Agonist activity at FLAG-tagged ERalpha (unknown origin) expressed in HEK293 cells assessed as induction of ER-alpha-mediated transcriptional activity by luciferase reporter gene assay
# Assay type: cell-based
So I've got a bunch of compounds here, and I need their pEC50 values.
Please note pEC50 is a logarithmic value: minus log10 of concentration in mol/L. Answer with that number alone.

query: Fill blank: measured pEC50 of the compound "CCCC(CCC)(c1ccc(N)c(C)c1)c1ccc(O)c(C)c1" is ____.
result: 8.89

query: Ok, now "CCCC(CCC)(c1ccc(O)c(C)c1)c1ccc(N(C)C)c(C)c1"
result: 7.70

###

Estrogen receptor (Homo sapiens) measurements of log10 IC50, listed per entry.
Answers are given as log10 of IC50 in nM.

query: I have this compound here, "CCCC(CCC)(c1ccc(O)c(C)c1)c1ccc(OCC(=O)OC(C)C)c(C)c1" , and I need its recorded log10 IC50.
result: 2.00

query: Queued: "CCCC(CCC)(c1ccc(N)c(C)c1)c1ccc(O)c(C)c1"
result: 0.91

query: Please give the result for "CCCC(CCC)(c1ccc(O)c(C)c1)c1ccc(OCCN(C)C)c(C)c1" too.
result: 1.56

query: Repeat for the following compound: "CCCC(CCC)(c1ccc(O)c(C)c1)c1ccc(NC)c(C)c1"
result: 2.32

query: Then this compound: "CCCC(CCC)(c1ccc(O)c(C)c1)c1ccc(/C=C/C(=O)O)c(C)c1"
result: 2.72
